- Procedure Text: Pharmacokinetic experiment in mice
- Assay type: in vivo
- Condition Summary: male, C57, po; mouse plasma, i.g. (10 mg/kg)
Quantity Kind: AUC(0-t) (ng·h/mL)

Below: 3 compounds and their reported AUC(0-t).
{"columns": ["Compound", "AUC(0-t) (ng·h/mL)"],
 "data": [
  ["O=C1CCc2ccc(Cn3nc(-c4cnc(OCC(F)(F)F)nc4)ccc3=O)cc21", 2320],
  ["O=c1ccc(-c2cnc(OCC(F)(F)F)nc2)nn1Cc1ccc2c(c1)C1CC1C2 (single isomer, unassigned)", 8170],
  ["O=c1ccc(-c2cnc(OCC(F)(F)F)nc2)nn1Cc1ccc2c(c1)CC1CC21 (single isomer, unassigned)", 6180]
]}

(a) Cn1cc(Oc2ncc(-c3ccc(=O)n(Cc4ccc5c(c4)CCC5)n3)cn2)cn1
(b) O=c1ccc(-c2cnc(OCC(F)(F)F)nc2)nn1Cc1ccc2[nH]ncc2c1 [Comparative Example 1, reference compound]
Q: Look at a and b . Which one has the lower recorded AUC(0-t) number? Kindly state the label of the option you pick.
A: b
(b: 2210 ng·h/mL, a: 8320 ng·h/mL)

From: patent US20260217683A1
